Test: Equilibrium solubility, shake-flask method
Format: physicochemical
Conditions: Hex, organic solvent or mixture, thermodynamic from solid, Hex, 310.15 K; value given as S2×10^5; read-out: solubility S2∙105
MEASUREMENT_LABEL: solubility at 24 h (µM)
State just the number; it will be interpreted in µM.

Sample COc1ccc2c3c([nH]c2c1)C(C)=NCC3 [HML, Harmaline] ; solubility at 24 h observed: 130

====

Assay: Equilibrium solubility, shake-flask method
Assay type: physicochemical
Conditions: Hex, organic solvent or mixture, thermodynamic from solid, Hex, 308.15 K; value given as S2×10^5; read-out: solubility S2∙105
MEASUREMENT_LABEL: solubility at 24 h
Answer as a quantity: numeral, then unit.

Sample COc1ccc2c3c([nH]c2c1)C(C)=NCC3 ; solubility at 24 h observed: 114 µM

====

Test: Equilibrium distribution coefficients in organic solvent/pH 7.4 systems, shake-flask method
Assay type: physicochemical
Details: OctOH (octanol)/buffer pH 7.4, pH 7.4, OctOH/pH 7.4, 298.15 K; read-out: log DappOctOH/pH7.4 (logD) (converted)
MEASUREMENT_LABEL: logD at 24 h
Please give only the number in your answer, with no unit.

Sample COc1ccc2c3c([nH]c2c1)C(C)=NCC3 ; logD at 24 h observed: 1.02

====

Assay: Equilibrium solubility, shake-flask method
Type: physicochemical
Settings: Hex, organic solvent or mixture, thermodynamic from solid, Hex, 298.15 K; value given as S2×10^5; read-out: solubility S2∙105
MEASUREMENT_LABEL: solubility at 24 h (µM)
State just the number; it will be interpreted in µM.

Sample COc1ccc2c3c([nH]c2c1)C(C)=NCC3 ; solubility at 24 h observed: 75.3

====

Test: Equilibrium solubility, shake-flask method
Assay type: physicochemical
Details: Hex, organic solvent or mixture, thermodynamic from solid, Hex, 295.15 K; value given as S2×10^5; read-out: solubility S2∙105
Protocol: The equilibrium solubility of HML was measured by the shake-flask method over a wide temperature range of 293.15–313.15 K. Briefly, glass vials containing the respective solvent were charged with an excess of the drug. […] Concentrations were determined spectrophotometrically at 373 nm using a Cary-50 instrument (Varian, Palo Alto, CA, USA; software version 3.00 (339)) based on calibration curves. […]
MEASUREMENT_LABEL: solubility at 24 h (µM)
State just the number; it will be interpreted in µM.

Sample COc1ccc2c3c([nH]c2c1)C(C)=NCC3 [HML, Harmaline] ; solubility at 24 h observed: 65

====

Assay: Equilibrium solubility, shake-flask method
Type: physicochemical
Details: Hex, organic solvent or mixture, thermodynamic from solid, Hex, 293.15 K; value given as S2×10^5; read-out: solubility S2∙105
MEASUREMENT_LABEL: solubility at 24 h
Answer as a quantity: numeral, then unit.

Sample COc1ccc2c3c([nH]c2c1)C(C)=NCC3 ; solubility at 24 h observed: 59.2 µM

====

Test: Permeability in Franz diffusion cell, polydimethylsiloxane-polycarbonate membrane
Format: in vitro ADME
Conditions: PDS membrane, pH 7.4, 310.15 K; read-out: permeability coefficient Papp
MEASUREMENT_LABEL: Papp at 5 h (×10⁻⁶ cm/s)
State just the number; it will be interpreted in ×10⁻⁶ cm/s.

Sample COc1ccc2c3c([nH]c2c1)C(C)=NCC3 [HML, Harmaline] ; Papp at 5 h observed: 0.165
